Target: human URAT1 (Homo sapiens, UniProt Q96S37)
Construct: Human URAT1 full length cDNA was subcloned to expression vector pcDNA3.1
Sequence (Q96S37 1-553): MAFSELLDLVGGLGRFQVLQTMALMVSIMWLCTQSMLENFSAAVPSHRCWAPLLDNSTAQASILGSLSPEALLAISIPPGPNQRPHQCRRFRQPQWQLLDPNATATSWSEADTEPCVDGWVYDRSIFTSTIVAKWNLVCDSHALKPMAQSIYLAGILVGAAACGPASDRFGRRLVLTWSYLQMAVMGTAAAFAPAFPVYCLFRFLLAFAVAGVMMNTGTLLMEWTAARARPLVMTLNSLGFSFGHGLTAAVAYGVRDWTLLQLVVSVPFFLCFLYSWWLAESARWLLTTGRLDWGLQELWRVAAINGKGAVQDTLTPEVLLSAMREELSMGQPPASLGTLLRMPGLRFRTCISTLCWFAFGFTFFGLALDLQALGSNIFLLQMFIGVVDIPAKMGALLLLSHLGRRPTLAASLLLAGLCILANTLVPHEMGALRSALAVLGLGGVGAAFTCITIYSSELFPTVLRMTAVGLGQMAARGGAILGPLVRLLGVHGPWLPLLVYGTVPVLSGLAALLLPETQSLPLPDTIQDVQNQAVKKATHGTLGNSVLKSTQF
Assay: Uric acid transport inhibitory test using human URAT1-expressing cells
Conditions: human URAT1 expressing HEK293 cells, uptake of 14C-labeled uric acid for 5 min, room temperature; read-out: hURAT1 (IC50, concentration necessary for inhibiting the uric acid transport rate by 50%)
pIC50: −log10 of the molar value.
measured.attribute: pIC50

{"columns": ["compound", "pIC50"],
 "data": [
  ["O=C(c1cc(Br)c(O)c(Br)c1)N1CCOc2ccc([N+](=O)[O-])cc21", "> 7.00"],
  ["Nc1ccc2c(c1)OCCN2C(=O)c1cc(Cl)c(O)c(Cl)c1", "5.52 to 6.00"],
  ["O=C(c1cc(Cl)c(O)c(Cl)c1)N1CCOc2ccc(S(=O)(=O)N3CCCC3)cc21", "6.00 to 7.00"]
]}

Measured pIC50 of O=C(c1ccc(O)c(Cl)c1)N1CCOc2ccccc21 : > 7.00

Sample CCS(=O)(=O)c1ccc2c(c1)N(C(=O)c1cc(Cl)c(O)c(Cl)c1)CCO2 ; pIC50 observed: 5.52 to 6.00

Lab note: Nc1ccc2c(c1)N(C(=O)c1cc(Cl)c(O)c(Cl)c1)CCO2 gave pIC50 of 6.00 to 7.00

Please fill in: pIC50 reported for O=C(c1cc(Br)c(O)c(Br)c1)N1CCOc2ccc(F)cc21 = > 7.00

// recorded pIC50 for COC(=O)c1ccc2c(c1)OCCN2C(=O)c1cc(Cl)c(O)c(Cl)c1 : 5.52 to 6.00

# pIC50 (compound: O=C(c1ccc(O)c(Br)c1)N1CCOc2ccccc21 ) is > 7.00

* * *

Biological target: human URAT1 (Homo sapiens, UniProt Q96S37)
Construct: Human URAT1 full length cDNA was subcloned to expression vector pcDNA3.1
Sequence (Q96S37 1-553): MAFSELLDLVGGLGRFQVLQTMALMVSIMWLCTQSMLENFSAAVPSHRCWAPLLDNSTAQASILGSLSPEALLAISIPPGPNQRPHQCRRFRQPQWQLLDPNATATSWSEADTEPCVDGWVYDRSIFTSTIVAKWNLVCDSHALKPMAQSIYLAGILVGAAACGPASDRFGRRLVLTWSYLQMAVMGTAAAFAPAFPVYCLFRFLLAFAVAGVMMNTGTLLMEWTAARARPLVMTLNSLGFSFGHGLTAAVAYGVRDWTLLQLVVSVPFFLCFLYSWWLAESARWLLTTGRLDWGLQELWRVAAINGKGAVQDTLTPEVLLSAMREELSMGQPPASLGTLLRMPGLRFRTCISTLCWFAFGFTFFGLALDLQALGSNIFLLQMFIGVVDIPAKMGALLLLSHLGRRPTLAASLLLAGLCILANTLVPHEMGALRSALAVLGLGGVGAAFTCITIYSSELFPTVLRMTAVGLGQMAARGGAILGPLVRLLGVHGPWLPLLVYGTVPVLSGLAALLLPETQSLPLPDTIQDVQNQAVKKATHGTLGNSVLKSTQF
Assay: Uric acid transport inhibitory test using human URAT1-expressing cells
Details: human URAT1 expressing HEK293 cells, uptake of 14C-labeled uric acid for 5 min, room temperature; read-out: hURAT1 (IC50, concentration necessary for inhibiting the uric acid transport rate by 50%)
Experimental: Reference Experimental Example 1 Uric Acid Transport Inhibitory Test Using Human Urat1-Expressing Cells […] After the medium was removed by aspiration from each well, the cells were washed once with Hank's Balanced Salt Solution (HBSS) and preincubated with HBSS ([…]/well) for 5 min. […] The cells were lysed by stirring and the radioactivity of each well was measured in a liquid scintillation counter (TOP COUNT, Packard). […]
pIC50: −log10 of the molar value.
Here, each record is paired with measured pIC50 data.

{"columns": ["compound", "pIC50"],
 "data": [
  ["O=S(=O)(c1cc(Cl)c(O)c(Cl)c1)N1CCOc2ccccc21 [Example 22]", "5.52 to 6.00"]
]}

Sample CN(C)S(=O)(=O)c1ccc2c(c1)N(C(=O)c1cc(Cl)c(O)c(Cl)c1)CCO2 [Example 35] ; pIC50 observed: 5.52 to 6.00

Lab book: pIC50 of O=C(c1cc(Cl)c(O)c(Cl)c1)N1CCOc2c(O)cccc21 [Example 90] noted as 6.00 to 7.00

Quick note, pIC50 for O=C(c1cc(Cl)c(O)c(Cl)c1)N1CCCCc2ccccc21 [Example 27] landed at 6.00 to 7.00

Entry under test: O=C(c1cc(Cl)c(O)c(Cl)c1)N1CCOc2cccc(O)c21 [Example 89] . Its pIC50 was > 7.00

// pIC50 value for O=C(c1cc(Cl)cc(Cl)c1O)N1CCOc2ccccc21 [Example 38] : 6.00 to 7.00

O=C(c1cc(Cl)c(O)c(Cl)c1)N1CCNc2ccccc21 [Example 54] yielded pIC50 of 6.00 to 7.00

Per the records, this compound ( O=C(c1ccc(O)c([N+](=O)[O-])c1)N1CCOc2ccccc21 [Example 75] ) has pIC50 equal to 6.00 to 7.00

* * *

Here the recorded pIC50 is given for each entry.
molecular target: human URAT1 (Homo sapiens, UniProt Q96S37); construct: Human URAT1 full length cDNA was subcloned to expression vector pcDNA3.1; assay: Uric acid transport inhibitory test using human URAT1-expressing cells; conditions: human URAT1 expressing HEK293 cells, uptake of 14C-labeled uric acid for 5 min, room temperature; read-out: hURAT1 (IC50, concentration necessary for inhibiting the uric acid transport rate by 50%)
pIC50: −log10 of the molar value.

{"columns": ["smiles.code", "pIC50"],
 "data": [
  ["CC(=O)Oc1c(Cl)cc(C(=O)N2CCOc3ccccc32)cc1Cl", "6.00 to 7.00"],
  ["Cc1cc(C(=O)N2CCOc3ccccc32)cc(C)c1O", "6.00 to 7.00"],
  ["Oc1c(Cl)cc(C(=S)N2CCOc3ccccc32)cc1Cl", "> 7.00"],
  ["COC(=O)c1ccc2c(c1)N(C(=O)c1cc(Cl)c(O)c(Cl)c1)CCO2", "6.00 to 7.00"],
  ["O=C(c1cc(Cl)c(O)c(Cl)c1)N1c2ccccc2Oc2ccccc21", "5.52 to 6.00"],
  ["O=C(c1cc(Cl)c(O)c(Cl)c1)N1CCOc2cc(O)ccc21", "6.00 to 7.00"]
]}

// moving on: another record for pIC50
Recorded result, COc1cc(C(=O)N2CCOc3ccccc32)cc(Cl)c1O , pIC50: 6.00 to 7.00

* * *

target: human URAT1 (Homo sapiens, UniProt Q96S37); construct: Human URAT1 full length cDNA was subcloned to expression vector pcDNA3.1; assay: Uric acid transport inhibitory test using human URAT1-expressing cells; conditions: human URAT1 expressing HEK293 cells, uptake of 14C-labeled uric acid for 5 min, room temperature; read-out: hURAT1 (IC50, concentration necessary for inhibiting the uric acid transport rate by 50%)
pIC50: −log10 of the molar value.
measured.attribute: pIC50

// solved cases for pIC50 follow
{"columns": ["smiles.code", "pIC50"],
 "data": [
  ["O=C(c1cc(I)c(O)c(I)c1)N1CCOc2ccccc21", "> 7.00"],
  ["O=C(c1ccc(O)c(C(F)(F)F)c1)N1CCOc2ccccc21", "> 7.00"]
]}

The compound listed as O=C(c1cc(Cl)c(O)c(Cl)c1)N1CCOc2cccnc21 has a reported pIC50 of 6.00 to 7.00

Summary for this compound, O=C(c1cc(Br)c(O)c(Br)c1)N1CCOc2ccc(Cl)cc21 : pIC50 is > 7.00

Short answer for Cc1cccc2c1N(C(=O)c1cc(Cl)c(O)c(Cl)c1)CCO2 : pIC50 was > 7.00

// pIC50 lookup, compound = O=C1COc2ccccc2N1C(=O)c1cc(Cl)c(O)c(Cl)c1 , result: 5.52 to 6.00

response.value for COc1ccc2c(c1)N(C(=O)c1cc(Cl)c(O)c(Cl)c1)CCO2 (field: pIC50) = > 7.00

Sure, the documented pIC50 for CS(=O)(=O)N1CCN(C(=O)c2cc(Cl)c(O)c(Cl)c2)c2ccccc21 is 6.00 to 7.00

Form: compound = O=C(c1cc(Cl)c(O)c(Cl)c1)N1CCOc2ccc([N+](=O)[O-])cc21 ; pIC50 = > 7.00
